Ref: PubChem BioAssay AID686979

Test: qHTS for Inhibitors of human tyrosyl-DNA phosphodiesterase 1 (TDP1): qHTS in cells in presence of CPT; note: nearly all actives have a fitted effect of over 55% in size
Settings: chicken DT40 Tdp1-/-;hTDP1 cells + 20 nM CPT, ATP luminescence, 48 h; series mostly up to 46.2 µM
Protocol: Human tyrosyl-DNA phosphodiesterase 1 (TDP1) is a novel repair gene, and we propose to use it as a new target for anticancer drug development. […] For the primary screen, Tdp1-/-;hTDP1 cells will be exposed to small molecules in the presence or absence of CPT, and their growth kinetics will be evaluated after 48 hours by measuring ATP activity. […] The hit compounds will then be evaluated in the presence or absence of CPT using Tdp1-/- cells. […]
About 50,000 (12%) of roughly 420,000 compounds were called active. Inconclusive results (about 26%) are left out. Calls come from the whole dose curve; as a rule, active = well fitted inhibition curve with a large enough effect; inconclusive = small, poorly fitted or top-dose-only effect; inactive = flat fitted curve, though single readings scatter. The full list was thinned out, with actives kept by preference.
Labels: 1 (yes) for active, 0 (no) for inactive

1. CC(=O)c1sc(N)nc1C
0 (no)
2. Cc1cccc(-n2nc3c(c2NC(=O)c2ccc(Br)o2)CSC3)c1C
0 (no)
3. COc1cccc(Nc2ncccc2C(=O)O)c1
0 (no)
4. Cc1nc2cnc(Nc3ccccc3)nc2n(C[C@H]2CCCO2)c1=O
0 (no)
5. O=C(c1ccc(Cl)cc1)N1N=C(c2ccccn2)CC1(O)C(F)(F)F (stereo unspecified)
1 (yes)
6. CN1CCN(c2ncc3c(n2)CC(c2ccccc2F)CC3=O)CC1 (stereo unspecified)
0 (no)
7. CCOc1ccc(CNC(=O)c2ccc3nc(CC)c(CC)nc3c2)cc1OC
0 (no)
8. COc1cccc(C(=O)Nc2c3c(nn2-c2cccc(C)c2C)CS(=O)(=O)C3)c1OC
1 (yes)
9. CC[n+]1cc(C)ccc1/C=C/c1ccc(N(C)C)cc1
1 (yes)
10. O=C(C1CC1)N1N=C(c2ccc(Br)cc2)CC1(O)C(F)(F)F (stereo unspecified)
0 (no)
11. COc1cccc(Nc2ncc3ncc(=O)n(C4CC4)c3n2)c1
1 (yes)

----------
assay: qHTS for Inhibitors of human tyrosyl-DNA phosphodiesterase 1 (TDP1): qHTS in cells in presence of CPT; settings: chicken DT40 Tdp1-/-;hTDP1 cells + 20 nM CPT, ATP luminescence, 48 h; series mostly up to 46.2 µM; note: nearly all actives have a fitted effect of over 55% in size
Screen size: about 420,000 compounds; about 50,000 (12%) were called active. Not shown: some 26% with an inconclusive outcome. Calls follow the shape of the dose curve; as a rule, active = well fitted inhibition curve with a large enough effect; inconclusive = small, poorly fitted or top-dose-only effect; inactive = flat fitted curve, though single readings scatter. This is one part of a sample in which actives are shown more often than they occur.
Classes used: yes (1) = active, no (0) = inactive

1. CCN(CC)c1ccc(NC(=O)CN2C(=O)c3cccnc3Oc3ccc(Cl)cc32)c(C)c1
yes (1)
2. Oc1ccc(-c2nc3ccccc3nc2-c2ccc(O)cc2O)c(O)c1
no (0)
3. C[C@@H]1CC[C@]2(O[C@@H](CCO)C[C@H](O)[C@H]2O)O1
no (0)
4. CC(C)C[C@@H]1COc2cc(N3CCC[C@@H]3CO)ccc2S(=O)(=O)N1
no (0)
5. Cc1nc2ccccc2nc1N/N=C/c1ccc(O)cc1O
yes (1)
6. Oc1ccc(/C=N/NC2=NCCCCC2)c(O)c1
no (0)
7. CCC1CCC2(CC1)NC(=O)N(CC(=O)Nc1ccc(OC)cc1)C2=O (stereo unspecified)
no (0)
8. CC(=O)c1cccc(NC(=O)CN2C(=O)c3cccnc3Oc3ccc(Cl)cc32)c1
yes (1)
9. CCN(CC)c1ccc(NC(=O)Cn2nc3c(cc2=O)CCCC3)c(C)c1
no (0)
10. COc1ccccc1C(c1nnnn1CC1CCCO1)N1CCN(c2ccccc2)CC1 (stereo unspecified)
no (0)
11. Cc1cc(N/N=C/c2ccccc2F)c2ccccc2n1
no (0)
